system: Vibrio harveyi (ATCC 35084); type: cell-based; details: ATCC 35084, 48 h
No end group written: not given here.
QUANTITY_MEASURED: MIC V. harveyi ATCC 35084, Acetic (µg/mL)
Use µg/mL as the unit, but write only the number.

Known results for substances:
{"columns": ["SUBSTANCE", "MIC V. harveyi ATCC 35084, Acetic / µg/mL"],
 "data": [
  ["RRQWRGWVRIWL-NH2 [Peptide 3005]", 16.25],
  ["KKWQLLIKWKLR-NH2 [Peptide 3008]", 16.25],
  ["RRWIVKVRIRRR-NH2 [Peptide 2008]", 1.02],
  ["WVGVIIKWGLKL-NH2 [Peptide 3018]", 16.25],
  ["ILVRWIRWRIQW-NH2 [Peptide 3002]", 4.06]
]}

Noted for KWRLLIRWRIQK [Peptide 2009] : its MIC V. harveyi ATCC 35084, Acetic reads 1.02

* * *

system: Vibrio rotiferianus; format: cell-based; conditions: 48 h
No end group written: not given here.
QUANTITY_MEASURED: MIC V. rotiferianus, salinity 0‰ (µg/mL)
Your answer should be a plain number; it is taken to be in µg/mL.

{"columns": ["SUBSTANCE", "MIC V. rotiferianus, salinity 0‰ / µg/mL"],
 "data": [
  ["KWRLLIRWRIQK [Peptide 2009]", 0.13],
  ["WVGVIIKWGLKL-NH2 [Peptide 3018]", 8.13],
  ["RRWIVKVRIRRR-NH2 [Peptide 2008]", 0.25],
  ["KKWQLLIKWKLR-NH2 [Peptide 3008]", 2.03]
]}

Entry under test: RRQWRGWVRIWL-NH2 [Peptide 3005] . Its MIC V. rotiferianus, salinity 0‰ was 1.02

The reported MIC V. rotiferianus, salinity 0‰ of the substance KRWWKWIRW-NH2 [HHC10] was 2.03

// recorded MIC V. rotiferianus, salinity 0‰ for ILVRWIRWRIQW-NH2 [Peptide 3002] : 8.13

* * *

test system: Vibrio harveyi; format: cell-based; details: 48 h
No end group written: not given here.
QUANTITY_MEASURED: MIC V. harveyi, Acetic (µg/mL)
# output: bare number, implied unit µg/mL

{"columns": ["SUBSTANCE", "MIC V. harveyi, Acetic [µg/mL]"],
 "data": [
  ["WVGVIIKWGLKL-NH2 [Peptide 3018]", 16.25],
  ["KKWQLLIKWKLR-NH2 [Peptide 3008]", 4.06],
  ["RRWIVKVRIRRR-NH2 [Peptide 2008]", 1.02],
  ["ILVRWIRWRIQW-NH2 [Peptide 3002]", 4.06],
  ["RRQWRGWVRIWL-NH2 [Peptide 3005]", 4.06]
]}

Record KWRLLIRWRIQK [Peptide 2009] has Vibrio harveyi MIC V. harveyi, Acetic equal to 1.02

* * *

// reported MIC V. rotiferianus, Acetic for each item listed
Tested on: Vibrio rotiferianus
Assay type: cell-based
Settings: 48 h
Description: A range of bacterial species with the potential to be transferred to developing fish larvae as pathogens or probiotics were selected for use in the study (Table 2). Bacterial isolates were stored at −80 °C and thawed, and 25 µL of the isolates was spread onto marine salt agar (MSA) media. […] A broth microdilution protocol was followed to test whether the AMPs precipitated in MHB. […] The 96-well plates were incubated at 25 °C and read at 24 and 48 hours. […]
No end group written: not given here.
# output: bare number, implied unit µg/mL

{"columns": ["SUBSTANCE", "OBS_VALUE"],
 "data": [
  ["ILVRWIRWRIQW-NH2 [Peptide 3002]", 4.06],
  ["WVGVIIKWGLKL-NH2 [Peptide 3018]", 8.13],
  ["RRWIVKVRIRRR-NH2 [Peptide 2008]", 0.25],
  ["RRQWRGWVRIWL-NH2 [Peptide 3005]", 4.06],
  ["KKWQLLIKWKLR-NH2 [Peptide 3008]", 2.03]
]}

Turning to the following substance.
# lookup: KWRLLIRWRIQK [Peptide 2009] on Vibrio rotiferianus, MIC V. rotiferianus, Acetic = 0.13
